Below is a list of entries, each paired with its recorded EC50 value.
subject-of-test: Human GPR40 (Homo sapiens)
measurement-description: FLIPR assay, agonist-induced calcium mobilization
Format: cell-based
Set-up: expressed in transfected cells
condition-set: GPR40/CHO NFAT BLA cells
Could you give me the number in nM? Just the number is fine.

Previously resolved entries follow.
O=C(O)[C@H]1[C@@H]2Cc3cc(OCc4ccc5c(c4)C(O)(c4ccccc4C(F)(F)F)CC5)ccc3[C@@H]21 (stereo partly shown) [Example 21]	17.7
CN1C(c2ccccc2C(F)(F)F)c2cc(COc3cc4c(cn3)[C@H]3[C@@H](C4)[C@@H]3C(=O)O)ccc2C1(C)C (stereo partly shown) [Example 38]	5.35
CC1(C)NC(c2ccccc2C(F)(F)F)c2cc(COc3cc4c(cn3)[C@H]3[C@@H](C4)[C@@H]3C(=O)O)ccc21 (stereo partly shown) [Example 39]	13.9

# next molecule below
Task: // returns reported EC50 for input CN1CC(C)(C)c2cc(F)c(COc3cc4c(cn3)[C@H]3[C@@H](C4)[C@@H]3C(=O)O)cc2[C@H]1c1ccccc1C(F)(F)F [Example 73]
Result: 18.6

====

Catalogue of compounds with associated pEC50
subject-of-test: Human GPR40 (Homo sapiens)
measurement-description: FLIPR assay, agonist-induced calcium mobilization
Type: cell-based
Parameters: expressed in transfected cells
condition-set: GPR40/CHO NFAT BLA cells
Entry type: numeric. Quantity: pEC50, the -log10 of concentration in molar units.

Known results for compounds:
CC1(C)CC(c2c(F)cccc2F)c2cc(COc3cc4c(cn3)[C@H]3[C@@H](C4)[C@@H]3C(=O)O)ccc21 (stereo partly shown) [Example 10]	8.31
O=C(O)[C@H]1[C@@H]2Cc3cc(OCc4ccc5c(c4)N(c4ccccc4C(F)(F)F)CC5)ncc3[C@@H]21 [Example 33]	7.82
O=C1CC(c2ccccc2C(F)(F)F)c2cc(COc3cc4c(cn3)[C@H]3[C@@H](C4)[C@@H]3C(=O)O)ccc21 (stereo partly shown) [Example 2]	7.30

Task: Which pEC50 value belongs to O=C(O)[C@H]1[C@@H]2Cc3cc(OCc4ccc5c(c4)N(c4ccccc4)CCCC5)ncc3[C@@H]21 [Example 62] ?
Result: 7.83

====

subject-of-test: Human GPR40 (Homo sapiens, UniProt O14842)
Sequence (O14842 whole entry): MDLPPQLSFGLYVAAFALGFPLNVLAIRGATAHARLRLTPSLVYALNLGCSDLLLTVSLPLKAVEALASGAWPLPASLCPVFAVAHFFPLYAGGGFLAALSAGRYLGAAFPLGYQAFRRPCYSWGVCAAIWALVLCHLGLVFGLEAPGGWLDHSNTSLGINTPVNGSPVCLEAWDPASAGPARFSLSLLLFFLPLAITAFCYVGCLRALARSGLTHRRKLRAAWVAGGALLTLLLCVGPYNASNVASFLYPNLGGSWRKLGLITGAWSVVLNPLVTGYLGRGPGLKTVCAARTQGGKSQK
measurement-description: Inositol Phosphate Turnover (IP1) Assay
Type: cell-based
Design: expressed in transfected cells; host or cells: HEK cells (stably expressing the aequorin reporter)
condition-set: HEK cells stably expressing human GPR40, CisBio IP-One kit
measured-metric: pEC50
To interpret pEC50, take it as minus log10 of a concentration measured in moles per litre.

Solved entries (count: 5):
CN1C(c2ccccc2C(F)(F)F)c2cc(COc3cc4c(cn3)[C@H]3[C@@H](C4)[C@@H]3C(=O)O)ccc2C1(C)C (some centres unmarked) [Example 38]	7.93
O=C(O)[C@H]1[C@@H]2Cc3cc(OCc4ccc5c(c4)N(c4ccccn4)CCC5)ccc3[C@@H]21 [Example 67]	6.77
CC1(C)CC(c2ccccc2C(F)(F)F)c2cc(COc3cc4c(cn3)[C@@H]3[C@@H](C(=O)O)[C@@H]3C4(F)F)c(F)cc21 (some centres unmarked) [Example 24]	7.28
O=C(O)[C@H]1[C@@H]2Cc3cc(OCc4cccc5c4CCC5c4ccccc4C(F)(F)F)ncc3[C@@H]21 (single isomer, unassigned) [Example 64]	6.81
O=C(O)[C@H]1[C@@H]2Cc3cc(OCc4ccc5c(c4)C(c4ccccc4C(F)(F)F)CC54CC4)ncc3[C@@H]21 (some centres unmarked) [Example 1]	7.94

Task: I am curious: what pEC50 value has been reported for O=C(O)[C@H]1[C@@H]2Cc3cc(OCc4cc5c(cc4F)CCC5c4ccccc4C(F)(F)F)ncc3[C@@H]21 (some centres unmarked) [Example 20] ?
Result: 7.99

Task: Can you handle O=C(O)[C@H]1[C@@H]2Cc3cc(OCc4cc5c(cc4F)CCCC5c4ccccc4C(F)(F)F)ncc3[C@@H]21 (some centres unmarked) [Example 44] next?
Result: 7.17

Task: Subsequent entry: CC1(C)CC(c2c(F)cccc2F)c2cc(COc3cc4c(cn3)[C@H]3[C@@H](C4)[C@@H]3C(=O)O)ccc21 (some centres unmarked) [Example 10]
Result: 7.41

Task: # iterate: CC1(C)CC(c2ccccc2C(F)(F)F)c2cc(COc3cc4c(cn3)[C@H]3[C@@H](C4)[C@@H]3C(=O)O)ccc21 (some centres unmarked) [Example 3]
Result: 6.11

Task: Also CC1CC(c2ccccc2C(F)(F)F)c2cc(COc3cc4c(cn3)[C@H]3[C@@H](C4)[C@@H]3C(=O)O)ccc21 (some centres unmarked) [Example 5] ?
Result: 7.67
